The measurements presented in this section are drawn from patent US20240272170A1.

# targetOfAssay: T1, RA peptide (Octet assay of PS621 variants)
# T1 construct: X… with X = R
# measurementDescription: Octet (BLI), 30 C
measuredProperty: Octet response
Hey, just send me the number, nothing else.

QUERY: I'd like to know its Octet response. The binder in question is PS1107 (designed binder, Variant of PS621) MHSKFSHAGRICGAKFKVGEPIYRCKECSFDDTCVLCVNCFNPKDHTGHHVYTTICREFNNGICDCGDKEAWNHTLFCKAEEG
RESULT: 7.8

QUERY: I'd like to know its Octet response. The binder in question is PS1120 (designed binder, Variant of PS621) MHSKFSHAGRICGAKFKVGEPIYRCKECSFDDTCVLCVNCFNPKDHTGHHVYTKICTEFNNGICDCGDKEAWNHTLFCKAEEG
RESULT: 9.9

QUERY: I'd like to know its Octet response. The binder in question is PS1113 (designed binder, Variant of PS621) MHSKFSHAGRICGAKFKVGEPIYRCKECSFDDTCVLCVNCFNPKDHTGHHVYTTICTEFNNGICDCGDKEAWNKTLFCKAEEG
RESULT: 7.7

QUERY: I'd like to know its Octet response. The binder in question is PS1105 (designed binder, Variant of PS621) MHSKFSHAGRICGAKFKVGEPIYRCKECSFDDTCVLCVNCFNPKDHTRHHVYTTICTEFNNGICDCGDKEAWNHTLFCKAEEG
RESULT: 6.5

QUERY: I'd like to know its Octet response. The binder in question is PS1122 (designed binder, Variant of PS621 (T47L, I63E, E70T)) MHSKFSHAGRICGAKFKVGEPIYRCKECSFDDTCVLCVNCFNPKDHLGHHVYTTICTEFNNGECDCGDKTAWNHTLFCKAEEG
RESULT: 9.9

QUERY: I'd like to know its Octet response. The binder in question is PS1103 (designed binder, Variant of PS621) MHSKFSHAGRICGAKFKVGEPIYRCKECSFDYTCVLCVNCFNPKDHTGHHVYTTICTEFNNGICDCGDKEAWNHTLFCKAEEG
RESULT: 6.2

QUERY: I'd like to know its Octet response. The binder in question is PS1106 (designed binder, Variant of PS621) MHSKFSHAGRICGAKFKVGEPIYRCKECSFDDTCVLCVNCFNPKDHTGHHVYVTICTEFNNGICDCGDKEAWNHTLFCKAEEG
RESULT: 7.6

QUERY: I'd like to know its Octet response. The binder in question is PS1102 (designed binder, Variant of PS621) MHSKFSHAGRICGAKFKVGEPIYRCKECQFDDTCVLCVNCFNPKDHTGHHVYTTICTEFNNGICDCGDKEAWNHTLFCKAEEG
RESULT: 8.6

QUERY: I'd like to know its Octet response. The binder in question is PS1112 (designed binder, Variant of PS621) MHSKFSHAGRICGAKFKVGEPIYRCKECSFDDTCVLCVNCFNPKDHTGHHVYTTICTEFNNGICDCGDKTAWNHTLFCKAEEG
RESULT: 8.6
